These measurements were taken from patent US5082937A.

Molecular target: gastrin receptor (Cavia porcellus, UniProt H0VZC5)
Construct: guinea-pig gastric glands; from tissue; host or cells: gastric glands of male guinea pigs (animals from COB LABO)
Experiment: Binding affinity for the gastrin receptor, guinea-pig gastric glands, iodine-125-labelled gastrin
Conditions: read-out: IC50 Receptor bond Gastrin; guinea-pig gastric glands; Table I
From the text: The "in vitro" studies consisted in determining the binding affinity of the compounds of the invention for the cholecystokinin and gastrin receptors. […]
pIC50: −log10 of the molar value.
READOUT_TYPE: pIC50

{"MOLECULE": "Cc1cccc(NC(=O)N[C@@H]2N=C(c3ccccc3)c3ccccc3N(C)C2=O)c1 [XXa, reference compound]", "READOUT_TYPE": "pIC50", "ENDPOINT_VALUE": 8.33}

----------
Target: peripheral cholecystokinin receptor: CCK-A (Rattus norvegicus, UniProt P30551)
Construct: plasma membranes of the rat pancreas; from tissue; host or cells: pancreas plasma membranes of male SD rats (animals from IFFA CREDO)
Sequence (P30551 whole entry): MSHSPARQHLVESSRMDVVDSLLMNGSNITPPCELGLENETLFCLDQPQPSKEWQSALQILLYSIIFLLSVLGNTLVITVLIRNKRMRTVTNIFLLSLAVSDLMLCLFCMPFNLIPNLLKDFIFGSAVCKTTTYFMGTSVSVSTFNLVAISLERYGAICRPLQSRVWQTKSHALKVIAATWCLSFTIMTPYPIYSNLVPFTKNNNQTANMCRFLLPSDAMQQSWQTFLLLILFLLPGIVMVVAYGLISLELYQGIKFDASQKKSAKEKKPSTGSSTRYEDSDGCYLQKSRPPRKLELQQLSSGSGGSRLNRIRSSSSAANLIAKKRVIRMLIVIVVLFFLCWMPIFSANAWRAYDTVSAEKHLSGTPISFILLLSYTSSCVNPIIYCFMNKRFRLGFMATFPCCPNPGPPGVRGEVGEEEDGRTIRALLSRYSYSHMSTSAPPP
Assay: Binding affinity for the peripheral cholecystokinin receptor (CCK A), plasma membranes of the rat pancreas, inhibition of labelled [125I]-CCK8 sulphate binding
Conditions: rat pancreas plasma membranes; Table I; read-out: IC50 Receptor bond CCK A
Description: The "in vitro" studies consisted in determining the binding affinity of the compounds of the invention for the cholecystokinin and gastrin receptors. […]
pIC50: −log10 of the molar value.

{"MOLECULE": "Cc1cccc(NC(=O)N[C@@H]2N=C(c3ccccc3)c3ccccc3N(C)C2=O)c1 [XXa, reference compound]", "pIC50": 5.85}

----------
Target: gastrin receptor (Cavia porcellus, UniProt H0VZC5)
Construct: guinea-pig gastric glands; from tissue; host or cells: gastric glands of male guinea pigs (animals from COB LABO)
Sequence (H0VZC5 1-426): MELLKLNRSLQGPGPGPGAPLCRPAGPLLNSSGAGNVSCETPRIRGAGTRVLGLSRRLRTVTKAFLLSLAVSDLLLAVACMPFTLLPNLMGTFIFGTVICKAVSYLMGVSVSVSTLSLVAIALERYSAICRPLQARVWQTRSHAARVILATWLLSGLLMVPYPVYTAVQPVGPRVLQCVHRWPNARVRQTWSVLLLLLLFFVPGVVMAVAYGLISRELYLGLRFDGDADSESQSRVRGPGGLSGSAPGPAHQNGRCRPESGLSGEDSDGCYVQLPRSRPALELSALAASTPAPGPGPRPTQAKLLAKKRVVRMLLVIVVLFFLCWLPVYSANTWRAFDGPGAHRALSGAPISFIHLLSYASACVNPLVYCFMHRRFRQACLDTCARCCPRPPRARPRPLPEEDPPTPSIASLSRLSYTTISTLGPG
Assay: Binding affinity for the gastrin receptor, guinea-pig gastric glands, iodine-125-labelled gastrin
Settings: in comparison with compound XXa
READOUT_TYPE: times less active on the gastrin receptor than XXa (times)

{"COMPOUND": "Cc1cccc(NC(=O)N[C@@H]2N=C(c3ccccc3)c3cccc4c3N(CC4)C2=O)c1 [Example 2]", "UNIT_TAG": "times", "ENDPOINT_VALUE": 20}
{"COMPOUND": "Cc1cccc(NC(=O)NC2N=C(c3ccccc3)c3cccc4c3N(CCC4)C2=O)c1 (racemic) [Example 5]", "UNIT_TAG": "times", "ENDPOINT_VALUE": 3}
{"COMPOUND": "O=C1C(NC(=S)Nc2ccc(Br)cc2)N=C(c2ccccc2)c2cccc3c2N1CCC3 (racemic) [Example 10]", "UNIT_TAG": "times", "ENDPOINT_VALUE": 1.5}

----------
// log10(IC50) lookup, one value per entry
Target: peripheral cholecystokinin receptor: CCK-A (Rattus norvegicus)
Construct: plasma membranes of the rat pancreas; from tissue; host or cells: pancreas plasma membranes of male SD rats (animals from IFFA CREDO)
Experiment: Binding affinity for the peripheral cholecystokinin receptor (CCK A), plasma membranes of the rat pancreas, inhibition of labelled [125I]-CCK8 sulphate binding
READOUT_TYPE: log10(IC50) (log10 of the value in nM)

{"COMPOUND": "Cc1cccc(NC(=O)NC2N=C(c3ccccc3)c3cccc4c3N(CCC4)C2=O)c1 (racemic) [Example 5]", "log10(IC50)": 1.93}
{"COMPOUND": "O=C1C(NC(=S)Nc2ccc(Br)cc2)N=C(c2ccccc2)c2cccc3c2N1CCC3 (racemic) [Example 10]", "log10(IC50)": 3.48}
{"COMPOUND": "Cc1cccc(NC(=O)NC2N=C(c3ccccc3)c3cccc4c3N(CC4)C2=O)c1 (racemic) [Example 1]", "log10(IC50)": 1.78}
{"COMPOUND": "O=C(Nc1cnc2ccccc2c1)NC1N=C(c2ccccc2)c2cccc3c2N(CCC3)C1=O (racemic) [Example 23]", "log10(IC50)": 2.59}
{"COMPOUND": "O=C(Nc1ccc([N+](=O)[O-])cc1)NC1N=C(c2ccccc2)c2cccc3c2N(CCC3)C1=O (racemic) [Example 8]", "log10(IC50)": 3.49}
{"COMPOUND": "Cc1cccc(NC(=O)N[C@@H]2N=C(c3ccccc3)c3cccc4c3N(CC4)C2=O)c1 [Example 2]", "log10(IC50)": 3.01}
{"COMPOUND": "Cc1cccc(NC(=O)N[C@@H]2N=C(c3ccccc3)c3cccc4c3N(CCC4)C2=O)c1 [Example 7]", "log10(IC50)": 3.24}

----------
Biological target: central cholecystokinin receptor: CCK-B (Cavia porcellus, UniProt H0VZC5)
Construct: guinea-pig brain membranes; from tissue; host or cells: brain membranes of male guinea pigs (animals from COBLABO)
Experiment: Binding affinity for the central cholecystokinin receptor (CCK B), guinea-pig brain membranes, inhibition of labelled [125I]-CCK8 sulphate binding
Conditions: read-out: IC50 Receptor bond CCK B; guinea-pig brain membranes; Table I

{"COMPOUND": "Cc1cccc(NC(=O)N[C@@H]2N=C(c3ccccc3)c3ccccc3N(C)C2=O)c1 [XXa, reference compound]", "TARGET_UNDER_TEST": "central cholecystokinin receptor: CCK-B (Cavia porcellus, UniProt H0VZC5)", "UNIT_TAG": "nM", "IC50": 81.4}

----------
Molecular target: central cholecystokinin receptor: CCK-B (Cavia porcellus, UniProt H0VZC5)
Construct: guinea-pig brain membranes; from tissue; host or cells: brain membranes of male guinea pigs (animals from COBLABO)
Test: Binding affinity for the central cholecystokinin receptor (CCK B), guinea-pig brain membranes, inhibition of labelled [125I]-CCK8 sulphate binding
Conditions: guinea-pig brain membranes; Table I; read-out: IC50 Receptor bond CCK B
Rule: IC50 below 200 nM gives t, anything at or above gives f.

{"COMPOUND": "Cc1cccc(NC(=O)NC2N=C(c3ccccc3)c3cccc4c3N(CCC4)C2=O)c1 (racemic)", "CLASS": "f"}
{"COMPOUND": "O=C1C(NC(=S)Nc2ccc(Br)cc2)N=C(c2ccccc2)c2cccc3c2N1CCC3 (racemic) [Example 10]", "CLASS": "t"}
{"COMPOUND": "O=C(Nc1ccc([N+](=O)[O-])cc1)NC1N=C(c2ccccc2)c2cccc3c2N(CCC3)C1=O (racemic)", "CLASS": "f"}
{"COMPOUND": "Cc1cccc(NC(=O)N[C@@H]2N=C(c3ccccc3)c3cccc4c3N(CCC4)C2=O)c1", "CLASS": "f"}
{"COMPOUND": "Cc1cccc(NC(=O)N[C@@H]2N=C(c3ccccc3)c3cccc4c3N(CC4)C2=O)c1", "CLASS": "t"}
{"COMPOUND": "O=C(Nc1cnc2ccccc2c1)NC1N=C(c2ccccc2)c2cccc3c2N(CCC3)C1=O (racemic)", "CLASS": "t"}
{"COMPOUND": "O=C1C(NC(=S)Nc2ccc(Br)cc2)N=C(c2ccccc2)c2cccc3c2N1CCC3 (stereo in doubt) [Example 26]", "CLASS": "t"}
{"COMPOUND": "Cc1cccc(NC(=O)NC2N=C(c3ccccc3)c3cccc4c3N(CC4)C2=O)c1 (racemic)", "CLASS": "f"}

----------
Molecular target: gastrin receptor (Cavia porcellus)
Construct: guinea-pig gastric glands; from tissue; host or cells: gastric glands of male guinea pigs (animals from COB LABO)
Sequence (H0VZC5 1-426): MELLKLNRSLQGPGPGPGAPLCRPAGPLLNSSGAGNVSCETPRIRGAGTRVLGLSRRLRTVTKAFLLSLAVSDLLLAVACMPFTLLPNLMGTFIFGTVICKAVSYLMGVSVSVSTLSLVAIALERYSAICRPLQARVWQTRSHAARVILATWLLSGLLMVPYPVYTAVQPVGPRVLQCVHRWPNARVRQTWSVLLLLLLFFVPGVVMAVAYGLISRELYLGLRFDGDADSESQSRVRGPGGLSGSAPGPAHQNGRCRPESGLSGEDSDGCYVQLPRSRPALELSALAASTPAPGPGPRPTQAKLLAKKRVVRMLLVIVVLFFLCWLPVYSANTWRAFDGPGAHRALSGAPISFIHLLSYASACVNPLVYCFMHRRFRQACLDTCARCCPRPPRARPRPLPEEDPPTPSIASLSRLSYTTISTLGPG
Assay: Binding affinity for the gastrin receptor, guinea-pig gastric glands, iodine-125-labelled gastrin
Conditions: guinea-pig gastric glands; Table I; read-out: IC50 Receptor bond Gastrin
pIC50: −log10 of the molar value.

{"COMPOUND": "O=C1C(NC(=S)Nc2ccc(Br)cc2)N=C(c2ccccc2)c2cccc3c2N1CCC3 (stereo in doubt) [Example 26]", "pIC50": 7.44}
{"COMPOUND": "Cc1cccc(NC(=O)N[C@@H]2N=C(c3ccccc3)c3cccc4c3N(CC4)C2=O)c1", "pIC50": 7.07}
{"COMPOUND": "O=C(Nc1ccc([N+](=O)[O-])cc1)NC1N=C(c2ccccc2)c2cccc3c2N(CCC3)C1=O (racemic)", "pIC50": 7.22}
{"COMPOUND": "Cc1cccc(NC(=O)NC2N=C(c3ccccc3)c3cccc4c3N(CC4)C2=O)c1 (racemic)", "pIC50": 7.84}
